Give measured Kd for each item. Keep answers brief.
TEST_TARGET: T1, human MDM2 (residues 2–125) (human, UniProt Q00987 2-125)
T1 construct: MDM2 (murine double minute 2), human, N-terminal domain, residues 2-125; no tag is named; also called N-terminal domain of MDM2
T1 sequence (Q00987 2-125): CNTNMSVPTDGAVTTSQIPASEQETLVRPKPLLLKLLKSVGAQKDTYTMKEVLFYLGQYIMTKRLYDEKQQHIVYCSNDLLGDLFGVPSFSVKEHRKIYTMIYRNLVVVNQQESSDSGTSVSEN
TEST_DETAILS: other fluorescence titration; peptide 0–10 μM added to 4 μM MDM2; fluorescence at 315 nm after excitation at 280 nm; 15 °C; 50 mM Tris-HCl pH 8.0, 250 mM NaCl, 0.5 mM TCEP; samples left overnight at 5 °C
CONDITIONS_USED: both partners purified
Numbers only, in µM.

A selection of reference data follows.
| BINDER | UNIT_TEXT | NUMERIC_READOUT |
| --- | --- | --- |
| Ac-EEFDDLWKLLPEN-NH2 (also called double phosphomimetic mutant) [Ac-EeFdDLWKLLPEN-NH2 (P53-E18-D20)] | µM | 8.3 |
| Ac-ETFDDLWKLLPEN-NH2 [Ac-ETFdDLWKLLPEN-NH2 (P53-D20)] | µM | 1.5 |

// below: Kd requested for another binder
Check the records and state Kd for Ac-EEFSDLWKLLPEN-NH2 [Ac-EeFSDLWKLLPEN-NH2 (P53-E18)]
2.3

FYI, the data here is from paper PMC6345774.
